# credit: patent US8129398B2

Molecular target: HIV-integrase (Human immunodeficiency virus type 1 group M subtype B)
Construct: Recombinant integrase (0.26 ng) was incubated with the beads
Assay: HIV-Integrase Inhibition Activity (SPA bead integration assay with P33 labeled target DNA)
Format: biochemical
Settings: recombinant integrase, class symbols; read-out: in vitro activity
pIC50: −log10 of the molar value.
Assignment: determine reported pIC50 for the given compounds.

Example entries begin here.
CN(C)C(=O)[C@@H]1CCCN1C(=O)C(=O)NC12CCC(CC1)Cn1c2nc(C(=O)NCc2ccc(F)cc2)c(O)c1=O :: > 8.00
Cc1cc(CNC(=O)c2nc3n(c(=O)c2O)CC2CCC3(NC(=O)C(=O)N(C)C)CC2)nn1C(C)(C)C :: 7.00 to 8.00
Cc1cc(CNC(=O)c2nc3n(c(=O)c2O)CC2CCC3(NS(=O)(=O)C3CC3)CC2)ccc1F :: > 8.00

Hi there! I need pIC50 for each item below, if you can.
1. CC1(C)[C@@H]2CC[C@@]1(C)[C@@H](NC(=O)OCc1ccccc1)c1nc(C(=O)NCc3ccc(F)cc3)c(O)c(=O)n1C2
2. CN(C)C(=O)C(=O)NC12CCC(Cn3c1nc(C(=O)NCc1ccc(F)cc1)c(O)c3=O)C2 (single isomer, unassigned) [Example 411]
3. CCN(C(=O)C(=O)N(C)C)C12CCC(CC1)Cn1c2nc(C(=O)NCc2ccc(F)cc2)c(O)c1=O
4. CN(C)C(=O)C(=O)NC12CCC(CC1)Cn1c2nc(C(=O)NCCCn2ccnc2)c(O)c1=O

1: 7.00 to 8.00; 2: > 8.00; 3: > 8.00; 4: < 7.00
